Source: PubChem BioAssay (NCI)

# protocolSummary: NCI Yeast Anticancer Drug Screen. Data for the bub3 strain (AID 167)
# experimentalSetup: S. cerevisiae bub3 mutant strain, at 50.0 µM, hits give high values
This is part of a sample that, as a whole, favours compounds with a hit. Of some 79,000 tested, about 15% had one in any assay.
assayMetric: growth inhibition (%)
Please state the figure in %; there is no need to write the unit.

Give its growth inhibition value. Item: O=P(N=P(c1ccccc1)(c1ccccc1)c1ccccc1)(c1ccccc1)c1ccccc1
87.2

What do we get for CC(C)Sc1nc(NC(=O)N(CCCl)N=O)cc(=O)[nH]1 ?
13.2

What do we get for CCCCCCCCNc1ncnc2c1cnn2C ?
97.8

What do we get for CSC(=S)OC1CC(n2cnc3c(NC(=O)c4ccccc4)ncnc32)OC1CO[Si](C)(C)C(C)(C)C (stereo unspecified) ?
1.45

What do we get for CC(C)(C)OC(=O)Nc1cccc(Cl)c1 ?
10.2

What do we get for O=C1C=CC(=O)N1c1ccccc1 (tested in a mixture with another compound) ?
95.2

What do we get for O=C(c1ccccc1)C(Cl)c1ccccc1 (stereo unspecified) ?
94

What do we get for OC(Cc1cccnc1)(c1ccccc1)c1ccc(Cl)cc1 (stereo unspecified) ?
97.2

What do we get for CCCCC(CC)COC(=O)c1cc2ccccc2oc1=O (stereo unspecified) ?
79.6

What do we get for CCCCCCCCCCCCCCCCCC(=O)OCCOCCO ?
-13.3

What do we get for O=c1oc2ccccc2c(O)c1C1=N/C(=N/N=C/c2ccc(Cl)cc2)SC1 ?
98.5
